Reference source: ChEMBL document CHEMBL1201862

Can you tell me GI50 for the items I'm about to list?
System: HOP-62
Test: NCI tumour cell line growth inhibition, 48 h
Active and inactive are the calls of the source. Cut-off read from the data, not from the text of the source: active = GI50 up to about 1.1 µM and inactive = higher.

Data request, read-out GI50, for COC1=CC(=O)c2c(O)ccc(O)c2C1=O
2.19 µM (inactive)

Same again, this time with C=CC(C)(C)/C(=C\CO[Si](C(C)C)(C(C)C)C(C)C)C(=O)N(C)c1ccccc1I
16.3 µM (inactive)

Can you handle Cn1c2ccccc2c(=NNc2cccc(C(=O)O)c2)c2ccccc21 next?
12.7 µM (inactive)

Another compound: O=c1cc(CO)oc(C(O)c2ccccc2)c1O (stereo unspecified)
> 100 µM (inactive)

Check CCOC(=O)/C=C/n1c2ccccc2c(=O)c2cc(OC)ccc21 too.
> 100 µM (inactive)

// repeat for CSc1nc(NC(C)C)c2c(n1)Sc1nc3ccccc3n1C2O (stereo unspecified) and report
6.37 µM (inactive)

###

System: NCI-H23
Experiment: NCI tumour cell line growth inhibition, 48 h
Calls of active or inactive are those of the source. Cut-off read from the data, not from the text of the source: active = GI50 up to about 1.1 µM and inactive = higher. Non-standard residues stand in square brackets, D forms with d. Residues, ends and D or L forms follow the SMILES beside them. *: point of attachment. Ac5c = NC1(C(=O)O)CCCC1; Boc = CC(C)(C)OC(=O)*; tBu = CC(C)(C)*
Pick one: yes for active, no for inactive

What did this assay record as the result for CC(C)(C)OC(=O)CN1CCN(CC(=O)N2CCN(C(=O)OCc3ccccc3)CC2)CCN(CC(=O)OC(C)(C)C)CCN(CC(=O)N2CCN(C(=O)OCc3ccccc3)CC2)CC1 ?
no

Try CCCCC#COP(=O)(OCC)OCC next.
no

Also CN(C)CC1CCC(=C2CCCC2)C1=O (stereo unspecified) , if possible.
no

Likewise for CCC(c1ccc(N(C)C)cc1)C1NC(=S)NC1=O (stereo unspecified) ?
no

N=C(N)N/N=C(/c1nc2ccc([N+](=O)[O-])cc2[nH]c1=O)C(O)c1ccc([N+](=O)[O-])cc1 (stereo unspecified) , same question.
no

What about this compound? COc1ccc(/N=C2\S/C(=N\C(=N\c3ccccc3)SCc3ccccc3)N(c3ccccc3)\C2=N/c2ccc(OC)cc2)cc1
no

What do you have for O=C(O)CCn1cnc2c(S)ncnc21 ?
no

Can you check COc1ccc(N2C(=O)C3c4[nH]c5ccccc5c4C4CCC(C(C)C)CC4C3C2=O)cc1 (stereo unspecified) next?
no

Moving on to COC(=O)NN=C1C(C)(C)C(=O)C1(C)C
no

Next compound: COc1ccc(NC(=S)N/N=C/c2cccc(C)n2)cc1
no

Next up: O=C(Nc1ccc(Cl)c(C(F)(F)F)c1)C(=O)C(C(=O)/C=C/c1ccccc1)C1OC(=O)c2ccccc21 (stereo unspecified)
no

Input O=C[C@@H](CO)O[C@H](C=O)c1c[nH]c(=O)[nH]c1=O
no

Field entry: COc1ccc(NCC#N)cc1
no

Let us now turn to Nc1ccc(S(=O)(=O)C23CC4CC(CC(C4)C2)C3)cc1
no

C[C@]12CCC(=O)CC1CCCC2=O (stereo partly specified) ?
no

# repeat for CP(=O)(CCSc1ccccc1)c1ccccc1 (stereo unspecified)
no

Again, but for O=C1[C@@H]2C(c3ccccc3[N+](=O)[O-])=[N+](c3ccccc3)O[C@@H]2C(=O)N1c1ccc(Cc2ccc(N3C(=O)[C@H]4C(c5ccccc5[N+](=O)[O-])=[N+](c5ccccc5)O[C@H]4C3=O)cc2)cc1
no

Proceed to C/C(=N\NC(=S)Nc1ccc([N+](=O)[O-])cc1S(=O)(=O)O)c1ccccn1
no

Next up: CC1CN(c2cc3c(cc2F)c(=O)c(C(=O)O)cn3-c2ccc(F)cn2)CC(C)N1 (stereo unspecified)
no

What do you get for O=c1cc2ccccc2nn1Cc1ccccc1Cl ?
no

Check Cc1c(-c2ccccc2)n[nH]c1NC1(C)C(=O)N(/N=C/c2ccccc2)N=C1c1ccccc1 (stereo unspecified) too.
no

Another compound to check: Nc1nc(NCC2(CO)CCC2)cc(=O)[nH]1
no

Repeat for the following compound: CC(OC(C)(C)C)C1NC(=O)C(CCCCNC(=O)OC(C)(C)C)NC(=O)C(Cc2c[nH]c3ccccc23)NC(=O)C(Cc2ccccc2)NC(=O)C2(CCCC2)NC(=O)C(Cc2ccccc2)NC1=O (stereo unspecified) (cyclo([Ac5c]FWK(Boc)T(tBu)F); configuration not given here)
no

Now consider O=C1c2c(O)ccc(O)c2C(=O)c2c(NCCNC(=O)C(O)C(O)C(O)C(O)CO)ccc(NCCNC(=O)C(O)C(O)C(O)C(O)CO)c21 (stereo unspecified) and answer again.
yes

Next compound up: CC1(C)O[C@H]2OC(CO)C(N=[N+]=[N-])[C@H]2O1 (stereo partly specified)
no

Next entry: COC(=O)C(C(=O)C(=O)Nc1c(C)cccc1C(C)(C)C)c1nc2ccc(Cl)cc2nc1O (stereo unspecified)
no

And the next one, C=CC(C)(C)/C(=C\CO[Si](C(C)C)(C(C)C)C(C)C)C(=O)N(C)c1ccccc1I ?
no

Follow-up item: Cc1[nH]c2ncn(N)c(=N)c2c1Cc1ccccc1
no

Next record, please: N=C(N)NS(=O)(=O)c1ccc(NC(=O)c2cccc3c(NNc4ccc(S(N)(=O)=O)cc4)c4ccccc4nc23)cc1
no

Thanks! And CC(C)c1ccc(C(c2c(O)oc3ccccc3c2=O)c2c(O)oc3ccccc3c2=O)cc1 ?
no

Then what about the compound Cc1nc2sc3cccc(Cl)c3n2c(=O)c1/N=N/c1ccc(Cl)cc1 ?
no
